Study the reported pIC50 values for Poly [ADP-ribose] polymerase 1 (Homo sapiens) given below; they originate from different publications.
pIC50: −log10 of the molar value.

Completed entries (count: 8):
# molecule, result
measured = [
    ("O=C(CCCc1nc2ccccc2c(=O)[nH]1)N[C@H]1CC[C@H](c2nnc(-c3cccc(F)c3)o2)CC1", 5.98),
    ("O=C1CN(c2ccc(F)cc2)CCN1CCCc1nc2c(c(=O)[nH]1)CC1(CC2)CC1", "3.30 to 5.30"),
    ("CNCc1ccc(-c2cnn3c2[nH]c2cc(F)cc(C(N)=O)c23)cc1", "7.00 to 9.00"),
    ("CN(C)C1CCC(c2cnn3c2[nH]c2cc(F)cc(C(N)=O)c23)CC1 (stereo not drawn)", "7.00 to 9.00"),
    ("N#Cc1ccc(N2CCN([C@H]3C=C(c4cc5sccc5c(=O)[nH]4)CC3)CC2)nc1", "8.30 to 9.30"),
    ("O=C(c1ccccn1)N1CCN(C(=O)c2cc(Cn3c(=O)[nH]c(=O)c4ccccc43)ccc2F)CC1", "8.00 to 10.00"),
    ("Cn1ccc2c(=O)[nH]c(N3CCN(c4cccc(F)c4)CC3)nc21", 6.12),
    ("[2H]C1(c2ccc(-n3nc4c(C(N)=O)cccc4c3F)cc2)CCCNC1 (stereo not drawn)", "6.30 to 7.00"),
]

Now for a further molecule.
Enter reported pIC50 observed with Poly [ADP-ribose] polymerase 1 (Homo sapiens) for Cn1ccc2c(=O)[nH]c(N3CCN(c4ccc(F)cc4S(C)(=O)=O)CC3)nc21
5.93

----------
Study the reported IC50 values for UniProt P09874 given below; they originate from different publications.

Completed entries (count: 5):
# smilesNotation, result
records = [
    ("CC(C)N1CCC(c2cnn3c2[nH]c2cc(F)cc(C(N)=O)c23)CC1", "1 to 100 nM"),
    ("O=c1[nH]c(C2=C[C@H](N3CCN(c4nccs4)CC3)CC2)cc2sccc12", "5.1 to 50 nM"),
    ("N#Cc1ccc(N2CCN([C@H]3C=C(c4nc5c(c(=O)[nH]4)CC4(CC5)CC4)CC3)CC2)cc1F", "1 to 500 nM"),
    ("O=c1[nH]c(-c2ccc(C(F)(F)F)cc2)nc2c1ccn2C1CC1", "> 50000 nM"),
    ("NC(=O)c1c(F)ccc2cn(-c3ccc([C@@]4(F)CCCNC4)cc3)nc12", "100 to 500 nM"),
]

Suppose we examine the compound CNC(=O)c1ccc(N2CCN([C@H]3C=C(c4cc5ncccc5c(=O)[nH]4)CC3)CC2)cc1 ; what IC50 value has been reported?
0.5 to 5 nM

Suppose we examine the compound O=c1[nH]c(CCCN2C3CCC2CN(c2ccc(F)cc2)C3)nc2c1CC1(CC2)CC1 ; what IC50 value has been reported?
1 to 500 nM

Suppose we examine the compound O=c1[nH]nc(Cc2ccc(F)c(P3(=O)CCN(c4ccc(C(F)(F)F)cn4)CC3)c2)c2ccccc12 ; what IC50 value has been reported?
< 100 nM

----------
pIC50: −log10 of the molar value.
Study the reported pIC50 values for UniProt:P09874 given below; they originate from different publications.
observedProperty: pIC50

Completed entries (count: 4):
# compound, observedProperty, quantitativeReadout
measured = [
    ("O=C(CCc1nc2ccccc2c(=O)[nH]1)N[C@H]1CC[C@H](c2nnc(-c3ccc(F)cc3)o2)CC1", "pIC50", 5.71),
    ("O=C1NOCc2c(-c3ccc(C4(F)CCCNC4)c(F)c3)[nH]c3cccc1c23 (stereo not shown)", "pIC50", 8.46),
    ("CC(C)C1Cc2[nH]c(=O)c3ccoc3c2CO1 (racemic)", "pIC50", 7.10),
    ("CCCOc1ccc(C(=O)C2CCN(CC(=O)NCc3nc4c(c(=O)[nH]3)COCC4)CC2)cc1", "pIC50", 5.32),
]

(1) O=C(CCCc1nc2ccccc2c(=O)[nH]1)N1CCC(c2nnc(-c3cccnc3)o2)CC1
(2) [2H]C1([2H])ONC(=O)c2cccc3[nH]c(-c4ccc(C5CCCN5)c(F)c4)c1c23 (stereo not shown)
// returns 1 or 2 , whichever has the lower pIC50 Answer = label.
1
(1: 5.15, 2: 8.25)

(I) Cn1ccc2c(=O)[nH]c(N3CCN(c4ccccc4C(F)(F)F)CC3)nc21
(II) O=c1[nH]c2c(c3c1CCCC3)Cc1c(CN3CCC(O)CC3)cccc1-2
(III) CNC(=O)c1ccc(O[C@H]2CN(Cc3cnc4cc(C5CC5)c(=O)[nH]c4c3)[C@@H]2C)cn1
(IV) Cn1ccc2c(=O)[nH]c(N3CCN(c4ccc(Cl)c(Cl)c4)CC3)nc21
List from greatest to least pIC50. Write the labels out in the order the request specifies.
II, III, IV, I
(II: 8.42, III: 8.12, IV: 5.90, I: 4.38)

----------
Study the reported pIC50 values for UniProt P09874 given below; they originate from different publications.
pIC50: −log10 of the molar value.

Completed entries (count: 4):
# compound, result
rows = [
    ("COCCN1CCC(c2cnn3c2[nH]c2cc(F)cc(C(N)=O)c23)CC1", "7.00 to 9.00"),
    ("C[C@@]1(c2ccc(-n3cc4cccc(C(N)=O)c4n3)c(F)c2)CCCNC1", "6.30 to 7.00"),
    ("CNCc1ccc(F)c(-c2cnn3c2[nH]c2cc(F)cc(C(N)=O)c23)c1", "6.00 to 7.00"),
    ("O=c1[nH]c(C2=C[C@@H](N3CCC(c4ccc(Cl)cc4)CC3)CC2)nc2c1CC1(CC2)CC1", "5.30 to 6.30"),
]

Suppose we examine the compound CC1(C(=O)N2CCN(C(=O)c3cc(Cn4c(=O)[nH]c(=O)c5ccccc54)ccc3F)CC2)CCCO1 (stereo not shown) ; what pIC50 value has been reported?
8.00 to 10.00

Suppose we examine the compound [2H]C1(c2ccc(-n3cc4cccc(C(N)=O)c4n3)c(F)c2)CCCNC1 (stereo not shown) ; what pIC50 value has been reported?
6.30 to 7.00

Suppose we examine the compound CCN1CCC(c2cnn3c2[nH]c2cc(F)cc(C(N)=O)c23)C1 (stereo not shown) ; what pIC50 value has been reported?
7.00 to 9.00

Suppose we examine the compound CCCN1CCP(=O)(c2cc(Cc3n[nH]c(=O)c4ccccc34)ccc2F)CC1 ; what pIC50 value has been reported?
> 7.00

Suppose we examine the compound Cc1ccc(N2CCN([C@H]3C=C(c4nc5c(c(=O)[nH]4)CC4(CC5)CC4)CC3)CC2)nc1 ; what pIC50 value has been reported?
6.30 to 9.00

Suppose we examine the compound O=c1[nH]c(CCCN2CCN(c3ccc(F)cc3)CC2)nc2c1CCCC21CC1 ; what pIC50 value has been reported?
6.30 to 9.00

----------
Study the reported IC50 values for Poly [ADP-ribose] polymerase 1 (Homo sapiens, UniProt P09874) given below; they originate from different publications.

Completed entries (count: 4):
# compound, IC50
measured = [
    ("O=c1[nH]c(C2=C[C@H](N3CCN(c4ccc(Cl)c(F)c4)CC3)CC2)nc2c1CC1(CC2)CC1", "1 to 500 nM"),
    ("[2H][C@@]1(c2ccc(-n3cc4cccc(C(N)=O)c4n3)c(F)c2)CCCNC1", "100 to 500 nM"),
    ("CN(C)C(=O)c1ccc(N2CCN([C@H]3C=C(c4nc5c(c(=O)[nH]4)CC4(CC5)CC4)CC3)CC2)cc1", "5000 to 500000 nM"),
    ("Cc1ccc2c(=O)[nH]c(C3=C[C@H](N4CCN(c5ccc(C#N)cc5)CC4)CC3)cc2n1", "0.5 to 5 nM"),
]

Enter reported IC50 observed with Poly [ADP-ribose] polymerase 1 (Homo sapiens, UniProt P09874) for COc1cc(F)ccc1N1CCN([C@H]2C=C(c3nc4c(c(=O)[nH]3)CC3(CC4)CC3)CC2)CC1
1 to 500 nM

Enter reported IC50 observed with Poly [ADP-ribose] polymerase 1 (Homo sapiens, UniProt P09874) for Cc1cccc(N2CCN([C@H]3C=C(c4nc5c(c(=O)[nH]4)CC4(CC5)CC4)CC3)CC2)c1C
501 to 5000 nM

Enter reported IC50 observed with Poly [ADP-ribose] polymerase 1 (Homo sapiens, UniProt P09874) for Cc1c(F)cccc1N1CCN([C@H]2C=C(c3nc4c(c(=O)[nH]3)CC3(CC4)CC3)CC2)CC1
1 to 500 nM

Enter reported IC50 observed with Poly [ADP-ribose] polymerase 1 (Homo sapiens, UniProt P09874) for Cc1ncccc1N1CCN([C@H]2C=C(c3nc4c(c(=O)[nH]3)CC3(CC4)CC3)CC2)CC1
1 to 500 nM

Enter reported IC50 observed with Poly [ADP-ribose] polymerase 1 (Homo sapiens, UniProt P09874) for NC(=O)c1cc(F)cc2[nH]c3c(C4CC(O)CN4)cnn3c12 (centres unmarked)
1 to 100 nM

Enter reported IC50 observed with Poly [ADP-ribose] polymerase 1 (Homo sapiens, UniProt P09874) for O=c1[nH]c([C@H]2CC[C@@H](N3CCN(c4cccc(F)c4)CC3)C2)nc2c1CC1(CC2)CC1
501 to 5000 nM

Enter reported IC50 observed with Poly [ADP-ribose] polymerase 1 (Homo sapiens, UniProt P09874) for NC(=O)c1cccc2[nH]c(C3Cc4ccc(N)cc4CN3)nc12 (centres unmarked)
< 500 nM

Enter reported IC50 observed with Poly [ADP-ribose] polymerase 1 (Homo sapiens, UniProt P09874) for CC1(c2ccc(-n3cc4cccc(C(N)=O)c4n3)cc2)CCCNC1 (racemic)
100 to 500 nM

Enter reported IC50 observed with Poly [ADP-ribose] polymerase 1 (Homo sapiens, UniProt P09874) for N#Cc1ccc(N2CCN([C@H]3C=C(c4cc5scnc5c(=O)[nH]4)CC3)CC2)cc1
0.5 to 5 nM

Enter reported IC50 observed with Poly [ADP-ribose] polymerase 1 (Homo sapiens, UniProt P09874) for O=c1[nH]c(C2=C[C@@H](N3CCN(c4ccc(Cl)cc4)CC3)CC2)nc2c1CC1(CC2)CC1
1 to 500 nM
